Biological target: PKR WT (Homo sapiens, UniProt P30613)
Sequence (P30613 whole entry): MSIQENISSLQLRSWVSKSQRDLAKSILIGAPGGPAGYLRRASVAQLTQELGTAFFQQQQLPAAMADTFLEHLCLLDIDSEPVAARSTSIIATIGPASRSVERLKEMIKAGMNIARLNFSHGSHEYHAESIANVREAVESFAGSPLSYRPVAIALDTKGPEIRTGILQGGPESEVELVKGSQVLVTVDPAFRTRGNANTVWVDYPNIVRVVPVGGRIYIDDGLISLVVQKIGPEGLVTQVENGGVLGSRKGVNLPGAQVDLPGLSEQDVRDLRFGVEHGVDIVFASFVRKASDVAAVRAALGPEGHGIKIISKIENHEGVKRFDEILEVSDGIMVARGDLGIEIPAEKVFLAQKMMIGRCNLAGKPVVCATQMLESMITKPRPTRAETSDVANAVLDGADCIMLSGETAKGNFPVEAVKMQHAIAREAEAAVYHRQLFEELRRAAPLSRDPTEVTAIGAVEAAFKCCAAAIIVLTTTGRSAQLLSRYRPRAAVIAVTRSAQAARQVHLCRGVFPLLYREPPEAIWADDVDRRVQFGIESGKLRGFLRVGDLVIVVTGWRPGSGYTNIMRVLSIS
Experiment: PKR WT enzymatic assay AC50
Format: biochemical
Conditions: wild type PKR
Description: • PKR or PKR mutant enzyme solution was diluted in assay buffer. • 2 μL of test compound was added into wells first, and then 180 μL reaction mix was added. • Reactions mixture with test compound was assembled except for ADP, and plates were stored for 60 minutes at room temperature. • 20 uL ADP was added to start reaction at room temperature and reaction progress was measured as changes in absorbance at 340 nm wavelength at room temperature. […]
REPORTED ENDPOINT: AC50

> print(dat)
                                     smiles      result.value
1  O=C(c1ccc(NS(=O)(=O)c2cccc3cccnc23)cc1)N1CC(O)(c2ncccc2F)C1    101 to 1000 nM
2  Cc1cccc(CC2(O)CN(C(=O)c3ccc(NS(=O)(=O)c4cccc5cccnc45)cc3)C2)n1  1010 to 10000 nM
3  O=C(c1ccc(NS(=O)(=O)c2cccc3cccnc23)cc1F)N1CC(O)(Cc2ccccc2)C1    101 to 1000 nM

---

Molecular target: PKR R510Q (Homo sapiens, UniProt P30613, R510Q)
Sequence (P30613 whole entry R510Q): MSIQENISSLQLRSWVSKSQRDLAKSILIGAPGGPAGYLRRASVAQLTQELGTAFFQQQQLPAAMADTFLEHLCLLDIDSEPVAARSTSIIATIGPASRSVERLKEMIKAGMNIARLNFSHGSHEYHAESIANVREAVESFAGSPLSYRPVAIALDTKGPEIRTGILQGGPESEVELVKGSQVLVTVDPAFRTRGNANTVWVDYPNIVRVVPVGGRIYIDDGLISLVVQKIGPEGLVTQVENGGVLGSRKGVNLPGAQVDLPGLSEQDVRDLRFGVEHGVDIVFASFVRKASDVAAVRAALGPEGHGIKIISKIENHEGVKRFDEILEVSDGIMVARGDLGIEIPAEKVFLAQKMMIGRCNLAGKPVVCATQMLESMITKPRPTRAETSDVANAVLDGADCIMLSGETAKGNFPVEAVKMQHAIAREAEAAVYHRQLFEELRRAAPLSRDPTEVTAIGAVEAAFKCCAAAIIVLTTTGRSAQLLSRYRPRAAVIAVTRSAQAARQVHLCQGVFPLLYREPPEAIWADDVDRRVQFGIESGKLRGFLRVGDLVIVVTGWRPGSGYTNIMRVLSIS
Assay: PKR mutant assay, PKR R510Q AC50
Type: biochemical
Conditions: mutant PKR R510Q enzyme
Description: • PKR or PKR mutant enzyme solution was diluted in assay buffer. • 2 μL of test compound was added into wells first, and then 180 μL reaction mix was added. • Reactions mixture with test compound was assembled except for ADP, and plates were stored for 60 minutes at room temperature. • 20 uL ADP was added to start reaction at room temperature and reaction progress was measured as changes in absorbance at 340 nm wavelength at room temperature. […]
Readings of AC50 for the listed molecules
REPORTED ENDPOINT: AC50

> print(dat)
                                   molecule   result.value
1  O=C(c1ccc(NS(=O)(=O)c2cccc3cccnc23)cc1)N1CC(O)(c2ncccc2OC(F)F)C1  1.01 to 10 µM
2  O=C(c1ccc(NS(=O)(=O)c2cccc3cccnc23)cc1)N1CC(O)(Cc2cccc(F)n2)C1  1.01 to 10 µM
3  O=C(c1ccc(NS(=O)(=O)c2cccc3cccnc23)cc1F)N1CC(O)(Cc2ccccc2)C1  1.01 to 10 µM
4  CCCC1(O)CN(C(=O)c2ccc(NS(=O)(=O)c3cccc4cccnc34)cc2)C1        > 10 µM
5  O=C(c1ccc(NS(=O)(=O)c2cccc(Cl)c2Cl)cc1)N1CC(O)(Cc2ccccc2)C1        > 10 µM
6  CCC1(O)CN(C(=O)c2ccc(NS(=O)(=O)c3cccc4cccnc34)cc2)C1        > 10 µM
7  O=C(c1ccc(NS(=O)(=O)c2cccc3cccnc23)cc1)N1CC(O)(c2ncccc2C(F)(F)F)C1  1.01 to 10 µM
8  O=C(c1ccc(NS(=O)(=O)c2ccc(F)cc2F)cc1)N1CC(O)(c2cccc(C(F)(F)F)c2)C1        > 10 µM
9  CC(O)C1(O)CN(C(=O)c2ccc(NS(=O)(=O)c3cccc4cccnc34)cc2)C1 (stereo not drawn)        > 10 µM

---

Overview of recorded AC50 for various compounds
target: PKR WT (Homo sapiens, UniProt P30613); experiment: PKR WT cell based assay AC50; settings: wild type PKR
REPORTED ENDPOINT: AC50

> print(dat)
                                   compound    result.value
1  CCc1ccccc1C1(O)CN(C(=O)c2ccc(NS(=O)(=O)c3cccc4cccnc34)cc2)C1 [Compound 13]        < 100 nM
2  O=C(c1ccc(NS(=O)(=O)c2cccc3cccnc23)cc1)N1CC(O)(c2ccccc2OC(F)(F)F)C1 [Compound 7]  101 to 1000 nM
3  O=C(c1ccc(NS(=O)(=O)c2cccc3cccnc23)cc1)N1CC(O)(c2cccnc2C(F)(F)F)C1 [Compound 17]  101 to 1000 nM
4  CCCCC1(O)CN(C(=O)c2ccc(NS(=O)(=O)c3cccc4cccnc34)cc2)C1 [Compound 16]  101 to 1000 nM
5  O=C(c1ccc(NS(=O)(=O)c2cccc3cccnc23)cc1)N1CC(O)(c2cccc(OC(F)(F)F)c2)C1 [Compound 10]  101 to 1000 nM
6  COc1ccccc1C1(O)CN(C(=O)c2ccc(NS(=O)(=O)c3cccc4cccnc34)cc2)C1 [Compound 2]  101 to 1000 nM
7  COc1cccc(C2(O)CN(C(=O)c3ccc(NS(=O)(=O)c4cccc5cccnc45)cc3)C2)c1 [Compound 61]        < 100 nM
8  O=C(c1ccc(NS(=O)(=O)c2cccc3cccnc23)cc1)N1CC(O)(c2ccccc2Cl)C1 [Compound 5]  101 to 1000 nM

---

target: PKR R532W (Homo sapiens, UniProt P30613, R532W); assay: PKR mutant assay, PKR R532W AC50; assay type: biochemical; conditions: mutant PKR R532W enzyme
Sequence (P30613 whole entry R532W): as the sequence (P30613 whole entry R510Q) above, with Q510R, R532W counted along it
REPORTED ENDPOINT: AC50

> print(dat)
                                    compound  reported.endpoint   result.value
 1  CC(C)C1(O)CN(C(=O)c2ccc(NS(=O)(=O)c3cccc4cccnc34)cc2)C1 [Compound 32]               AC50  1.01 to 10 µM
 2  O=C(c1ccc(NS(=O)(=O)c2ccccc2C(F)(F)F)cc1)N1CC(O)(Cc2ccccc2)C1 [Compound 51]               AC50        > 10 µM
 3  O=C(c1ccc(NS(=O)(=O)c2cccc3cccnc23)cc1)N1CC(O)(c2ncccc2F)C1 [Compound 22]               AC50  0.101 to 1 µM
 4  O=C(c1ccc(NS(=O)(=O)c2cccc3cccnc23)cc1)N1CC(O)(c2ccc(F)cc2)C1 [Compound 14]               AC50  0.101 to 1 µM
 5  O=C(c1ccc(NS(=O)(=O)c2cccc3cccnc23)cc1)N1CC(O)(c2ccccc2OC(F)(F)F)C1 [Compound 7]               AC50       < 0.1 µM
 6  CCCC1(O)CN(C(=O)c2ccc(NS(=O)(=O)c3cccc4cccnc34)cc2)C1 [Compound 36]               AC50  1.01 to 10 µM
 7  CC(C)CC1(O)CN(C(=O)c2ccc(NS(=O)(=O)c3cccc4cccnc34)cc2)C1 [Compound 35]               AC50  0.101 to 1 µM
 8  O=C(c1ccc(NS(=O)(=O)c2ccc(OC(F)(F)F)cc2)cc1)N1CC(O)(Cc2ccccc2)C1 [Compound 65]               AC50        > 10 µM
 9  COc1cccc(C2(O)CN(C(=O)c3ccc(NS(=O)(=O)c4cccc5cccnc45)cc3)C2)c1 [Compound 61]               AC50       < 0.1 µM
10  CN1C(=O)Cc2cc(S(=O)(=O)Nc3ccc(C(=O)N4CC(O)(Cc5ccccc5)C4)cc3)ccc21 [Compound 66]               AC50        > 10 µM
11  O=C(c1ccc(NS(=O)(=O)c2cccc3nonc23)cc1)N1CC(O)(Cc2ccccc2)C1 [Compound 69]               AC50        > 10 µM
